Source of measurements: patent US7268136B2

Field: Ki. Provide a value for each of the compounds that follow.
molecular target: CDK-2/Cyclin A (Homo sapiens, UniProt P24941); experiment: Inhibition of CDK-2, standard coupled enzyme assay; conditions: 100 μM ATP, 100 μM peptide, 25 nM CDK-2/Cyclin A, 30° C.

Challenge: Give the measured Ki of COc1ccc2nnc(Nc3ccccc3OC)n2n1 .
Response given: < 2000 nM

Challenge: Another compound: COc1ccc2nnc(Nc3ccc(C#N)cc3)n2n1
Response given: < 2000 nM

====

target: PIM-1 (Homo sapiens)
Sequence (P11309 whole entry): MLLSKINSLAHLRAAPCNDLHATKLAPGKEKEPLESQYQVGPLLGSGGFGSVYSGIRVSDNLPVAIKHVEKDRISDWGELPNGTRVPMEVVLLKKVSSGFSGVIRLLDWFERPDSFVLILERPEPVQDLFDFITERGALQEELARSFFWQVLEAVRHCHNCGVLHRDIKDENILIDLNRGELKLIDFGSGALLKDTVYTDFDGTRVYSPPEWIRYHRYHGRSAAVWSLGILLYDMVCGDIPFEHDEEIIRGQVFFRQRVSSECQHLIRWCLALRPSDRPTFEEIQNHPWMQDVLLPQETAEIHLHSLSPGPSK
pIC50: −log10 of the molar value.
Measured Property: pIC50

Challenge: pIC50 of COc1ccc(-c2nnc3ccc(NC4CC4)nn23)cc1 on PIM-1 (Homo sapiens)?
Response given: > 6.00

Challenge: Another molecule: COc1cccc(-c2nnc3ccc(NC4CC4)nn23)c1
Response given: > 6.00

====

target: GSK-3β (AA 1-420) (Homo sapiens, UniProt P49841); construct: GSK-3β (AA 1-420); assay: Inhibition of GSK-3, standard coupled enzyme system; type: biochemical; conditions: 20 μM ATP, 300 μM peptide, 20 nM GSK-3β, 30° C.
Sequence (P49841 whole entry, the tested form may be a part): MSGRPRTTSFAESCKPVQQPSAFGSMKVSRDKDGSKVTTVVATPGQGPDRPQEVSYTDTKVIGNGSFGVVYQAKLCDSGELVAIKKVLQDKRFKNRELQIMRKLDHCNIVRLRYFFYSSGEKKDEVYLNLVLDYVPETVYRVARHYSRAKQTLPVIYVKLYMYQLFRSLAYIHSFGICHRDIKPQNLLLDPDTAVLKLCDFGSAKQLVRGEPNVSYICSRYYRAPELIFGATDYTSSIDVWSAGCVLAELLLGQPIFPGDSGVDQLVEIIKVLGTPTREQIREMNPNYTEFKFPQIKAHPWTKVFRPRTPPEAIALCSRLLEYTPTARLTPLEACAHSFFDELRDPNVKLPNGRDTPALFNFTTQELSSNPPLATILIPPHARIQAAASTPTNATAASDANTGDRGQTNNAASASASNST
Measured Property: Ki

Challenge: Give the measured Ki of COc1ccc2nnc(Nc3cc(OC)c(OC)c(OC)c3)n2n1 .
Response given: < 2 µM

Challenge: Another compound: Fc1ccc(-c2nnc3ccc(NC4CC4)nn23)cc1
Response given: < 2 µM
